I'd appreciate it if you could supply log10(EC50) values for the items below.
# System: MDA-MB-231
# assay procedure: Cytotoxicity against human MDA-MB-231 cells assessed as reduction in cell viability measured after 72 hrs by CellTiter 96 aqueous one solution assay
# Type: functional, cell-based
# settings: MDA-MB-231, 72 h
Short version: log10 scale, EC50, nM.

Use the examples below as a reference point.
>  <chemical string>
COc1ccc2c(c1O)C(=O)c1c3c(cc(O)c1C2=O)[C@@]12O[C@@]1([C@@H](C)O)[C@H](C#C/C=C\C#C[C@H]2O)N3

>  <experimental value>
0.04

$$$$
>  <chemical string>
COC(=O)[C@H](O)[C@@](C)(O)[C@@]12O[C@]13c1cc(O)c4c(c1N[C@H]2C#C/C=C\C#C[C@H]3O)C(=O)c1cc(OC)ccc1C4=O

>  <experimental value>
1.15

$$$$
>  <chemical string>
COC(=O)[C@H](O)[C@@](C)(O)[C@@]12O[C@]13c1cc(O)c4c(c1N[C@H]2C#C/C=C\C#C[C@H]3O)C(=O)c1c(ccc(OC)c1O)C4=O

>  <experimental value>
0.70

$$$$
>  <chemical string>
COC(=O)[C@H](O)[C@@](C)(O)[C@@]12O[C@]13c1cc(O)c4c(c1N[C@H]2C#C/C=C\C#C[C@H]3O)C(=O)c1cc(O)ccc1C4=O

>  <experimental value>
1.57

$$$$

Hi there! I need log10(EC50) for each item below, if you can.
1. COC(=O)[C@H](O)[C@@](C)(O)[C@@]12O[C@]13c1cc(O)c4c(c1N[C@H]2C#C/C=C\C#C[C@H]3O)C(=O)c1c(ccc(OCC(C)=O)c1O)C4=O
2. C#CCOc1ccc2c(c1O)C(=O)c1c3c(cc(O)c1C2=O)[C@@]12O[C@@]1([C@](C)(O)[C@@H](O)C(=O)OC)[C@H](C#C/C=C\C#C[C@H]2O)N3
3. COC(=O)[C@H](O)[C@@](C)(O)[C@@]12O[C@]13c1cc(O)c4c(c1N[C@H]2C#C/C=C\C#C[C@H]3O)C(=O)c1c(ccc(O)c1O)C4=O

Response:
1. -0.05
2. 0.57
3. 1.53

###

# System: SK-MEL-5
# assay procedure: Cytotoxicity against human SK-MEL-5 cells assessed as reduction in cell viability measured after 72 hrs by CellTiter 96 aqueous one solution assay
# Format: functional, cell-based
# settings: SK-MEL-5, 72 h
I'd appreciate it if you could supply log10(EC50) values for the items below.
Short version: log10 scale, EC50, nM.

Use the examples below as a reference point.
>  <chemical string>
COC(=O)[C@H](O)[C@@](C)(O)[C@@]12O[C@]13c1cc(O)c4c(c1N[C@H]2C#C/C=C\C#C[C@H]3O)C(=O)c1cc(O)ccc1C4=O

>  <assayed system>
SK-MEL-5

>  <assay metric>
log10(EC50)

>  <experimental value>
1.56

$$$$
>  <chemical string>
COC(=O)[C@H](O)[C@@](C)(O)[C@@]12O[C@]13c1cc(O)c4c(c1N[C@H]2C#C/C=C\C#C[C@H]3O)C(=O)c1c(ccc(OCC(C)=O)c1O)C4=O

>  <assayed system>
SK-MEL-5

>  <assay metric>
log10(EC50)

>  <experimental value>
-0.10

$$$$
>  <chemical string>
COc1ccc2c(c1O)C(=O)c1c3c(cc(O)c1C2=O)[C@@]12O[C@@]1([C@@H](C)O)[C@H](C#C/C=C\C#C[C@H]2O)N3

>  <assayed system>
SK-MEL-5

>  <assay metric>
log10(EC50)

>  <experimental value>
-0.13

$$$$

Hi there! I need log10(EC50) for each item below, if you can.
1. COC(=O)[C@H](O)[C@@](C)(O)[C@@]12O[C@]13c1cc(O)c4c(c1N[C@H]2C#C/C=C\C#C[C@H]3O)C(=O)c1cc(OC)ccc1C4=O
2. C#CCOc1ccc2c(c1O)C(=O)c1c3c(cc(O)c1C2=O)[C@@]12O[C@@]1([C@](C)(O)[C@@H](O)C(=O)OC)[C@H](C#C/C=C\C#C[C@H]2O)N3
3. COC(=O)[C@H](O)[C@@](C)(O)[C@@]12O[C@]13c1cc(O)c4c(c1N[C@H]2C#C/C=C\C#C[C@H]3O)C(=O)c1c(ccc(O)c1O)C4=O
4. COC(=O)[C@H](O)[C@@](C)(O)[C@@]12O[C@]13c1cc(O)c4c(c1N[C@H]2C#C/C=C\C#C[C@H]3O)C(=O)c1c(ccc(OC)c1O)C4=O

Response:
1.28
0.45
1.51
0.45

Each recorded value in this set is attributed to ChEMBL document CHEMBL4619781.
